Hello, the source for this data is paper PMC10601989, in case you need it.

- Tested on: hair-cell mechano-electrical transducer (MET) channel (native, mouse cochlear outer hair cells)
- Construct: gene Tmc1; native full-length MET complex in outer hair cells of P2 organotypic cochlear cultures kept 1-2 days in vitro; TMC1 and/or TMC2 pore with TMIE (subunits named only in the discussion; copy numbers from the C. elegans cryo-EM structure it cites); with Transmembrane inner ear expressed protein
- Assay overview: whole-cell patch clamp of MET currents, fluid-jet bundle stimulation, fractional block
- Assay type: cell-based
- Settings: -64 mV; extracellular superfusion, 1.3 mM Ca2+, pH 7.48, room temperature; permeant voltage-dependent block
This section presents compounds with their documented % block at 10 μM values.

A selection of reference data follows.
CCCCN(CCCC)c1ccc(/C=C/c2cc[n+](CCCCC[N+](CC)(CC)CC)cc2)cc1    > 80%
CCCCN(CCCC)c1ccc(/C=C/c2cc[n+](CCC[N+](CC)(CC)CC)cc2)cc1    ~ 30%
CCCCN(CCCC)c1ccc(/C=C/c2cc[n+](CCCC[N+](CC)(CC)CC)cc2)cc1    > 80%

Field: next compound
INPUT: Given CCCCN(CCCC)c1ccc(/C=C/c2cc[n+](CCCC(=O)OCC)cc2)cc1 , state its recorded % block at 10 μM.
OUTPUT: > 80%
